- Tested on: Streptococcus oralis
- Method Summary: MIC of clinical trial isolates, Studies 373, 433, 434
- Type: cell-based
- Condition Context: N 18
Threshold check on MIC50: strictly below 1 µg/mL is YES; on or above 1 µg/mL is NO.

Given the entry COc1c(N2CCNC(C)C2)c(F)cc2c(=O)c(C(=O)O)cn(C3CC3)c12 (centres unmarked) , would its reported MIC50 be below 1 µg/mL?
YES

Follow-up item: CC1COc2c(N3CCN(C)CC3)c(F)cc3c(=O)c(C(=O)O)cn1c23 (centres unmarked)
NO

Follow-up item: N[C@@H]1CCCCN(c2c(F)cc3c(=O)c(C(=O)O)cn(C4CC4)c3c2Cl)C1
YES

Follow-up item: CC[C@H]1OC(=O)[C@H](C)[C@@H](O[C@H]2C[C@@](C)(OC)[C@@H](O)[C@H](C)O2)[C@H](C)[C@@H](O[C@@H]2O[C@H](C)C[C@H](N(C)C)[C@H]2O)[C@](C)(O)C[C@@H](C)CN(C)[C@H](C)[C@@H](O)[C@]1(C)O
NO

###

- Test system: Haemophilus influenzae
- Method Summary: MIC, CLSI broth microdilution, clinical isolates
- Format: cell-based
- Condition Context: Haemophilus influenzae (bla positive, N = 16)
Property Measured: MIC Range

Need MIC Range, item C[C@H]1COc2c(N3CCN(C)CC3)c(F)cc3c(=O)c(C(=O)O)cn1c23
0.015-0.015 μg/mL

Follow-up item: N[C@@H]1CCCCN(c2c(F)cc3c(=O)c(C(=O)O)cn(C4CC4)c3c2Cl)C1
0.008 to 0.03 µg/mL

Follow-up item: CC[C@H]1OC(=O)[C@H](C)[C@@H](O[C@H]2C[C@@](C)(OC)[C@@H](O)[C@H](C)O2)[C@H](C)[C@@H](O[C@@H]2O[C@H](C)C[C@H](N(C)C)[C@H]2O)[C@](C)(O)C[C@@H](C)CN(C)[C@H](C)[C@@H](O)[C@]1(C)O
0.06 to 1 µg/mL

Follow-up item: NC[C@H]1O[C@H](O[C@H]2[C@H](O)[C@@H](O[C@H]3O[C@H](CO)[C@@H](O)[C@H](N)[C@H]3O)[C@H](N)C[C@@H]2N)[C@H](N)C[C@@H]1O
0.5 to 4 µg/mL

###

Kindly supply the reported MIC90 values for the records listed here.
- Tested on: Streptococcus pneumoniae
- Method Summary: MIC, CLSI broth microdilution, clinical isolates
- Assay type: cell-based
- Condition Context: Streptococcus pneumoniae (all phenotypes, N = 35); read-out: MIC90
Numbers only here, please. The scale is µg/mL.

Need MIC90, item COc1c(N2CCNC(C)C2)c(F)cc2c(=O)c(C(=O)O)cn(C3CC3)c12 (centres unmarked)
0.25

Follow-up item: NC[C@H]1O[C@H](O[C@H]2[C@H](O)[C@@H](O[C@H]3O[C@H](CO)[C@@H](O)[C@H](N)[C@H]3O)[C@H](N)C[C@@H]2N)[C@H](N)C[C@@H]1O
32

Follow-up item: N[C@@H]1CCCCN(c2c(F)cc3c(=O)c(C(=O)O)cn(C4CC4)c3c2Cl)C1
0.06

Follow-up item: C[C@H]1COc2c(N3CCN(C)CC3)c(F)cc3c(=O)c(C(=O)O)cn1c23
1

###

- Tested on: Corynebacterium striatum
- Method Summary: MIC of clinical trial isolates, Studies 373, 433, 434
- Format: cell-based
- Condition Context: N 8
Property Measured: MIC50 (µg/mL)
Numbers only here, please. The scale is µg/mL.

GET /values?readout=MIC50&system=Corynebacterium striatum&item= C[C@H]1COc2c(N3CCN(C)CC3)c(F)cc3c(=O)c(C(=O)O)cn1c23 [LEVO]
0.06

Follow-up item: COc1c(N2CCNC(C)C2)c(F)cc2c(=O)c(C(=O)O)cn(C3CC3)c12 (stereo not shown) [GATI]
0.03

Follow-up item: N[C@@H]1CCCCN(c2c(F)cc3c(=O)c(C(=O)O)cn(C4CC4)c3c2Cl)C1 [BESI]
0.015

Follow-up item: CC1COc2c(N3CCN(C)CC3)c(F)cc3c(=O)c(C(=O)O)cn1c23 (stereo not shown) [OFLOX]
0.125

###

- Tested on: Staphylococcus hominis
- Method Summary: MIC, CLSI broth microdilution, clinical isolates
- Assay type: cell-based
- Condition Context: Staphylococcus hominis (N = 50)
Kindly supply the reported MIC90 values for the records listed here.

GET /values?readout=MIC90&system=Staphylococcus hominis&item= CC[C@H]1OC(=O)[C@H](C)[C@@H](O[C@H]2C[C@@](C)(OC)[C@@H](O)[C@H](C)O2)[C@H](C)[C@@H](O[C@@H]2O[C@H](C)C[C@H](N(C)C)[C@H]2O)[C@](C)(O)C[C@@H](C)CN(C)[C@H](C)[C@@H](O)[C@]1(C)O
> 8 µg/mL

Follow-up item: COc1c(N2CCNC(C)C2)c(F)cc2c(=O)c(C(=O)O)cn(C3CC3)c12 (stereo not shown)
4 µg/mL

Follow-up item: NC[C@H]1O[C@H](O[C@H]2[C@H](O)[C@@H](O[C@H]3O[C@H](CO)[C@@H](O)[C@H](N)[C@H]3O)[C@H](N)C[C@@H]2N)[C@H](N)C[C@@H]1O
32 µg/mL

Follow-up item: N[C@@H]1CCCCN(c2c(F)cc3c(=O)c(C(=O)O)cn(C4CC4)c3c2Cl)C1
1 µg/mL

Follow-up item: C[C@H]1COc2c(N3CCN(C)CC3)c(F)cc3c(=O)c(C(=O)O)cn1c23
> 8 µg/mL

Follow-up item: COc1c(N2C[C@@H]3CCCN[C@@H]3C2)c(F)cc2c(=O)c(C(=O)O)cn(C3CC3)c12
4 µg/mL

Follow-up item: Cc1onc(-c2ccccc2)c1C(=O)N[C@@H]1C(=O)N2[C@@H]1SC(C)(C)[C@@H]2C(=O)O
> 8 µg/mL

###

- Tested on: Haemophilus influenzae
- Method Summary: MIC, CLSI broth microdilution, clinical isolates
- Type: cell-based
- Condition Context: Haemophilus influenzae (bla negative, N = 24)
Kindly supply the reported MIC Range values for the records listed here.

Need MIC Range, item C[C@H]1COc2c(N3CCN(C)CC3)c(F)cc3c(=O)c(C(=O)O)cn1c23
0.008 to 0.015 µg/mL

Follow-up item: NC[C@H]1O[C@H](O[C@H]2[C@H](O)[C@@H](O[C@H]3O[C@H](CO)[C@@H](O)[C@H](N)[C@H]3O)[C@H](N)C[C@@H]2N)[C@H](N)C[C@@H]1O
0.06 to 4 µg/mL

###

Kindly supply the reported MIC50 values for the records listed here.
- Tested on: Staphylococcus aureus
- Method Summary: MIC, CLSI broth microdilution, clinical isolates
- Type: cell-based
- Condition Context: Staphylococcus aureus, Staphylococcus aureus (all phenotypes, N = 30)
Numbers only here, please. The scale is µg/mL.

Need MIC50, item N[C@@H]1CCCCN(c2c(F)cc3c(=O)c(C(=O)O)cn(C4CC4)c3c2Cl)C1 [Besifloxacin]
0.12

Follow-up item: CC[C@H]1OC(=O)[C@H](C)[C@@H](O[C@H]2C[C@@](C)(OC)[C@@H](O)[C@H](C)O2)[C@H](C)[C@@H](O[C@@H]2O[C@H](C)C[C@H](N(C)C)[C@H]2O)[C@](C)(O)C[C@@H](C)CN(C)[C@H](C)[C@@H](O)[C@]1(C)O [Azithromycin]
1

Follow-up item: NC[C@H]1O[C@H](O[C@H]2[C@H](O)[C@@H](O[C@H]3O[C@H](CO)[C@@H](O)[C@H](N)[C@H]3O)[C@H](N)C[C@@H]2N)[C@H](N)C[C@@H]1O [Tobramycin]
0.5

Follow-up item: C[C@H]1COc2c(N3CCN(C)CC3)c(F)cc3c(=O)c(C(=O)O)cn1c23 [Levofloxacin]
1

Follow-up item: Cc1onc(-c2ccccc2)c1C(=O)N[C@@H]1C(=O)N2[C@@H]1SC(C)(C)[C@@H]2C(=O)O [Oxacillin]
0.25

Follow-up item: COc1c(N2CCNC(C)C2)c(F)cc2c(=O)c(C(=O)O)cn(C3CC3)c12 (stereo not drawn) [Gatifloxacin]
1

###

- Method Summary: Study 424: tear fluid pharmacokinetics after single topical ocular instillation in healthy volunteers
- Assay type: in vivo, human
- Condition Context: both sexes, human, tear fluid, topical, 37 μL of 0.6% suspension per eye, tears, single instillation 0.6% suspension, healthy volunteers, FAS
Property Measured: half-life (h)
Numbers only here, please. The scale is h.

Need half-life, item N[C@@H]1CCCCN(c2c(F)cc3c(=O)c(C(=O)O)cn(C4CC4)c3c2Cl)C1 [Besifloxacin]
3.4

###

Kindly supply the reported MIC90 values for the records listed here.
- Test system: Staphylococcus aureus
- Method Summary: MIC, CLSI broth microdilution, clinical isolates
- Format: cell-based
- Condition Context: Staphylococcus aureus, Staphylococcus aureus (all phenotypes, N = 30)

Need MIC90, item Cc1onc(-c2ccccc2)c1C(=O)N[C@@H]1C(=O)N2[C@@H]1SC(C)(C)[C@@H]2C(=O)O
> 8 µg/mL

Follow-up item: N[C@@H]1CCCCN(c2c(F)cc3c(=O)c(C(=O)O)cn(C4CC4)c3c2Cl)C1
4 µg/mL

Follow-up item: COc1c(N2CCNC(C)C2)c(F)cc2c(=O)c(C(=O)O)cn(C3CC3)c12 (stereo not drawn)
> 8 µg/mL

Follow-up item: C[C@H]1COc2c(N3CCN(C)CC3)c(F)cc3c(=O)c(C(=O)O)cn1c23
> 8 µg/mL

Follow-up item: NC[C@H]1O[C@H](O[C@H]2[C@H](O)[C@@H](O[C@H]3O[C@H](CO)[C@@H](O)[C@H](N)[C@H]3O)[C@H](N)C[C@@H]2N)[C@H](N)C[C@@H]1O
> 32 µg/mL

Follow-up item: CC[C@H]1OC(=O)[C@H](C)[C@@H](O[C@H]2C[C@@](C)(OC)[C@@H](O)[C@H](C)O2)[C@H](C)[C@@H](O[C@@H]2O[C@H](C)C[C@H](N(C)C)[C@H]2O)[C@](C)(O)C[C@@H](C)CN(C)[C@H](C)[C@@H](O)[C@]1(C)O
> 8 µg/mL
